- System: COLO 205 colon
- test.details: NCI-60 one-dose screen, 48 h (100 = growth as untreated, 0 = no growth, -100 = all killed)
- experimental.conditions: 10 µM
Compounds without any hit were thinned out: in the full panel of roughly 83,000, 20% have a hit.
Label scheme for growth: lower than 60% is n, 60% and above is y.

INSERT INTO assay_data (molecule, target, class_label) VALUES
  ('CCOC(=O)c1sc(NC(=O)c2cc(OC)c(OC)c(OC)c2)nc1C', 'COLO 205 colon', 'y'),
  ('CCCOCC(O)CNCCN (configuration not stated)', 'COLO 205 colon', 'y'),
  ('CC(C)C(C)C(N)C(=O)O (configuration not stated)', 'COLO 205 colon', 'y'),
  ('CNC(=S)Sc1ccc([N+](=O)[O-])cc1[N+](=O)[O-]', 'COLO 205 colon', 'n'),
  ('CC(Oc1ccc(Cl)cc1)c1ccccc1 (configuration not stated)', 'COLO 205 colon', 'y'),
  ('COc1cc(CSc2nc3ccc(C)cc3c(=O)n2-c2ccccc2)cc(OC)c1OC', 'COLO 205 colon', 'n'),
  ('COc1cc(OC)cc(-c2ccc(-c3ccc(C(=N)N)cn3)o2)c1', 'COLO 205 colon', 'n'),
  ('Cc1c(C(=O)N[C@H](CO)Cc2ccccc2)[nH]c2ccc(Cl)cc2c1=O', 'COLO 205 colon', 'y'),
  ('Cc1cc(O)c(C2=NN(c3ccc(S(N)(=O)=O)cc3)C(c3ccc(N(C)C)cc3)C2)c(C)c1Cl (configuration not stated)', 'COLO 205 colon', 'y'),
  ('Clc1cc(Cl)c(OCCCCCCN2CCNCC2)c(Cl)c1', 'COLO 205 colon', 'n'),
  ('C=CCn1c(C)nc2cc(Nc3nc(Nc4ccc5nc(C)n(CC=C)c5c4)c4ccccc4n3)ccc21', 'COLO 205 colon', 'n'),
  ('O=C/C=C/c1ccc([N+](=O)[O-])cc1Cl', 'COLO 205 colon', 'y'),
  ('COc1cc2c3c(cccc3c1)C(=O)N(CCN1CCCC1)C2=O', 'COLO 205 colon', 'n'),
  ('CCCCCC(CCC)COC(=O)c1ccc(OC)cc1 (configuration not stated)', 'COLO 205 colon', 'y'),
  ('CCCCCCCOc1cccc(/C=C2/C(=O)N=C3SCCCN32)c1', 'COLO 205 colon', 'y'),
  ('CCc1nn2c(-c3cc(OC)c(OC)c(OC)c3)c(-c3cc(OC)c(OC)c(OC)c3)nc2s1', 'COLO 205 colon', 'y'),
  ('Cc1cccc2c(Nc3ccc(NS(C)(=O)=O)cc3)c3ccc([N+](=O)[O-])cc3nc12', 'COLO 205 colon', 'n'),
  ('Fc1cc(-c2ncc(-c3cc(F)c(F)c(F)c3)c(NC3CCCCCC3)n2)cc(F)c1F', 'COLO 205 colon', 'y'),
  ('COc1cc(-c2nc3ccc(C)cc3[nH]2)ccc1OCC(=O)N=Nc1c(O)[nH]c2ccccc12', 'COLO 205 colon', 'n'),
  ('Cc1cc(OI)c(C(C)C)cc1-c1cc(C(C)C)c(OI)cc1C', 'COLO 205 colon', 'y');

###

- Test system: HCT-15 colon
- test.details: NCI-60 one-dose screen, 48 h
- experimental.conditions: 10 µM
This is part of a sample that, as a whole, favours compounds with a hit. Of some 83,000 tested, about 20% had one in any assay. Activity calls are given as the source filed them. The calls were made as follows: active = growth percent below 10; inactive = the rest.
Possible outcomes: True = active, False = inactive

INSERT INTO measurements (compound, class_label) VALUES
  ('CCOC(=O)c1c(O)c2cc(-c3ccccc3)nc(OCC)c2c(=O)n1C', 'False'),
  ('N#Cc1ccc(-n2cnc(NC(=O)[C@H]3CCN(C#N)C3)c2)cc1', 'False'),
  ('COc1c(C)c(C)c(OC)c2c1[nH]c(=O)c1c3cccnc3cn21', 'False'),
  ('O=C(/C=C/c1nnc2n(Cc3ccccc3)c(=O)c3c4c(sc3n12)CCCC4)c1ccccc1', 'False'),
  ('O=C(NNC(=O)c1ccncc1)Nc1ccc([N+](=O)[O-])cc1', 'False'),
  ('NC1CCC(Nc2nc(NCc3ccc(-c4ccco4)nc3)c3ncn(C4CCCC4)c3n2)CC1 (configuration not stated)', 'True'),
  ('COc1ccc(Cn2cc3c(c2-c2cc(OC)c(OC)c(OC)c2)CCc2cnoc2-3)cc1[N+](=O)[O-]', 'False'),
  ('O=C(NC1CCCC1)c1ccc(N2CCC(NCc3cccc(C(F)(F)F)c3)CC2)cc1', 'False'),
  ('O=C(COc1ccc(-c2nc3ccccc3[nH]2)cc1)N=Nc1c(O)[nH]c2ccccc12', 'False'),
  ('CCC(CCNc1cc(OC)cc2cccnc12)CN1C(=O)c2ccccc2C1=O (configuration not stated)', 'False'),
  ('FC(F)(F)c1ccc(-c2cnc(Br)nc2NC2CCCCCC2)cc1', 'False'),
  ('O=C(Nc1cccc(C(F)(F)F)c1)C(Cl)Cl', 'False'),
  ('CCOC(=O)c1cc2c(n1Cc1ccccc1)-c1oncc1CC2', 'False'),
  ('Nc1ncncc1-c1ccc(F)cc1', 'False'),
  ('N#Cc1c(-c2ccccc2)nc(SCC(=O)N2CCOCC2)[nH]c1=O', 'False'),
  ('COc1cccc(C2(C)Nc3ccccc3-c3nc4ccccc4n32)c1 (configuration not stated)', 'False'),
  ('O=C1/C(=C/c2ccc(O)cc2O)N=C2SCCCN12', 'False'),
  ('Fc1ccc2[nH]c3c(NCCCN4CCOCC4)ncnc3c2c1', 'False'),
  ('COc1cc(-c2nc3cc(Cl)c(Cl)cc3[nH]2)ccc1OCC(=O)NN', 'False'),
  ('COc1ccc(Nc2ccnc(N3CCN(c4ccnc5cc(Cl)ccc45)CC3)n2)cc1', 'True'),
  ('COc1cc(C2C=C(c3ccc(Cl)cc3)N=C3SC(C)=CN32)cc(OC)c1OC (configuration not stated)', 'False'),
  ('O=C1/C(=C/c2ccc([N+](=O)[O-])s2)Oc2ccc(Cl)cc21', 'True');
